Would you kindly list growth for each of these compounds?
Test system: SW-620 colon
assayProcedure: NCI-60 one-dose screen, 48 h (100 = growth as untreated, 0 = no growth, -100 = all killed)
conditionDetails: 10 µM unless noted
The panel holds about 83,000 compounds, 20% with a hit somewhere; the sample as a whole holds those more often.
Only the number, expressed in %, is required.

What value of growth has been reported for the following compound? COc1ccc(C2Nc3ccccc3-n3cccc32)cc1 (stereo not given)
100

How about this compound: "Cn1c(=O)c2c(ncn2CC[N+](C)(C)C)n(C)c1=O"
106

How about this compound: CCCCNC(=O)NS(=O)(=O)c1ccc(N2N=C(c3cc(C)ccc3C)CC2c2cc(OC)c(OC)c(OC)c2)cc1 (stereo not given)
66.6

How about this compound: "C(=N\Nc1nnn(Cc2ccccc2)n1)/c1ccccc1"
35.2

How about this compound: "COC(=O)[C@@H]1CC[C@]2(C)[C@H](CC[C@@H]3O[C@@]32C)[C@@]1(C)CC(=O)c1ccoc1"
88.3

How about this compound: "COc1cccc(-c2nc3sccn3c2-c2ccnc(NCCCNS(=O)(=O)c3ccc(Cl)cc3)c2)c1"
58.3

How about this compound: "Cc1ccc2c(c1)O/C(=C\c1cccc(OCC(=O)c3ccccc3)c1)C2=O"
102

How about this compound: "C=C1C(=O)O[C@H]2[C@H]1CC/C(Cn1cc(Cn3ccc4ccccc43)nn1)=C\CC[C@@]1(C)O[C@@H]21"
-77.1

How about this compound: "O=C1c2cc3c(cc2-c2c1c1cc(Cl)c(Cl)cc1c(=O)n2C[C@H](O)CO)OCO3"
12.7

How about this compound: "COc1c(Cl)cc(Cl)cc1Cl"
91.8

---

Test system: U251 CNS
assayProcedure: NCI-60 one-dose screen, 48 h
conditionDetails: 10 µM unless noted
This is part of a sample that, as a whole, favours compounds with a hit. Of some 83,000 tested, about 20% had one in any assay. The source made the active and inactive calls. The calls were made as follows: active = growth percent below 10; inactive = the rest.
Mark one answer only. Choices: active, inactive

Identify the outcome logged in this assay for the compound shown: "O=C(Nc1cccc2c1C(=O)c1cccc(Nc3cccc4c3C(=O)c3cccc(NC(=O)c5ccccc5)c3C4=O)c1C2=O)c1ccccc1"
inactive

How about this compound: C=C1CC[C@@H]2[C@](C)(COC(C)=O)[C@H](OC(C)=O)CC[C@@]2(C)[C@@H]1CC(NCc1ccc(F)cc1)C1=CCOC1=O (some centres undefined)
inactive

How about this compound: "COc1ccc(-c2cnoc2-c2cc(OC)c3c(c2)OCCO3)cc1"
active

How about this compound: OC(c1cccc(C(F)(F)F)c1)c1cnccc1NC1CCCCCC1 (centres undefined)
active

---

System: UO-31 renal
assayProcedure: NCI-60 one-dose screen, 48 h (100 = growth as untreated, 0 = no growth, -100 = all killed)
conditionDetails: 10 µM unless noted
Compounds without any hit were thinned out: in the full panel of roughly 83,000, 20% have a hit.
Would you kindly list growth for each of these compounds?
Only the number, expressed in %, is required.

What value of growth has been reported for the following compound? "O=C1/C(=C\c2cn(C(=O)c3ccc(Cl)cc3)c3ccccc23)c2ccccc2N1c1c(Cl)cccc1Cl"
77

How about this compound: "COc1ccc2nc3cc(Cl)ccc3c(N3CCN(c4ccnc(N5CCOCC5)n4)CC3)c2c1"
57.2

How about this compound: "Cn1c2ccccc2c2c3[nH]c(=O)[nH]c(=O)c3c3c4ccccc4n(C)c3c21"
11.8

How about this compound: COc1ccc2nc3cc(Cl)ccc3c(NCCNCC(O)CO)c2c1 (centres undefined)
48.9

How about this compound: "C=C1C(=O)O[C@H]2[C@H]1CC/C(Cn1cc(Cc3c[nH]c4ccccc34)nn1)=C\CC[C@@]1(C)O[C@@H]21"
-71.1

How about this compound: "COc1cnc2c(c1)C(=O)c1c-2n(CCCN2CCCC2)c(=O)c2cc([N+](=O)[O-])ccc12"
-96.3

How about this compound: "O=C(COc1cccc(/C=C2/Oc3ccccc3C2=O)c1)Nc1nccs1"
-53.2

How about this compound: "COc1ccc(-c2cc(/C=C3\C(=O)Nc4ccc(Cl)cc43)[nH]n2)cc1"
64.4

How about this compound: CN(C)c1ccc(C2Nc3ccccc3-n3cccc32)cc1 (centres undefined)
64.2

---

System: IGROV1 ovarian
assayProcedure: NCI-60 one-dose screen, 48 h (100 = growth as untreated, 0 = no growth, -100 = all killed)
conditionDetails: 10 µM unless noted
This is part of a sample that, as a whole, favours compounds with a hit. Of some 83,000 tested, about 20% had one in any assay.
endpointName: growth (%)
Only the number, expressed in %, is required.

What value of growth has been reported for the following compound? "COc1cc(C(=O)/C=C/c2c(C)n([O-])c3ccc(C)cc3[n+]2=O)cc(OC)c1OC"
73.7

How about this compound: "CCN(CC)CCCCNc1ccc(NCCCCN(CC)CC)c2c1C(=O)c1ccccc1C2=O"
71.8

How about this compound: "Cc1ccc(/C=C2\Oc3cc(OCC(=O)c4ccc(Cl)cc4)ccc3C2=O)cc1"
57.1

How about this compound: "CN[C@@]12CC3(C=CC(=O)C=C3)O[C@]1(Cc1ccc(OC)cc1)N(C)C(=O)N2"
55.3

How about this compound: "COc1cccc(-c2cn3c(ccc4ccccc43)n2)c1"
41.2

How about this compound: COC(=O)C12C3C(=O)N(c4ccc(OC)cc4)C(=O)C3C(c3cn(-c4ccccc4)nc3C)N1[C@H](c1cn(-c3ccccc3)nc1C)[C@@H]1C(=O)N(c3ccc(OC)cc3)C(=O)[C@@H]12 (stereo partly drawn)
107

How about this compound: "C/C(Cc1ccc(Cl)cc1)=C(\c1ccc(OCCN2CCCCCC2)cc1)c1ccc(OC(=O)Cc2ccccc2)cc1"
44.9

How about this compound: "CC/C=C\C[C@H](F)C/C=C1/C(=O)C=C[C@@H]1C/C=C\CCCC(=O)OC"
10.6

---

Test system: T-47D breast
assayProcedure: NCI-60 one-dose screen, 48 h
conditionDetails: 10 µM unless noted
This is part of a sample that, as a whole, favours compounds with a hit. Of some 83,000 tested, about 20% had one in any assay. The source made the active and inactive calls. The calls were made as follows: active = growth percent below 10; inactive = the rest.
Mark one answer only. Choices: active, inactive

Identify the outcome logged in this assay for the compound shown: CCC(C)[C@@H]1NC(=O)[C@@H]2CCCN2C(=O)[C@H](Cc2ccccc2)NC(=O)[C@@H]2CCCN2C(=O)[C@H](Cc2ccccc2)NC(=O)[C@@H]2CCCN2C(=O)[C@H](Cc2ccccc2)NC1=O (some centres undefined)
inactive

How about this compound: "CC#CC#Cc1cccc(=O)o1"
inactive

How about this compound: "Cc1cc(=O)oc2cc(Oc3nc(-c4cccs4)cn4c(-c5cccs5)cnc34)ccc12"
inactive

How about this compound: "CCc1ccc(C(c2ccc(CC)cc2)C(Cl)(Cl)CCl)cc1"
inactive

How about this compound: "Nc1cccc(-c2nc3sccn3c2-c2ccnc(NCCCNS(=O)(=O)c3ccc(C(F)(F)F)cc3)n2)c1"
active

How about this compound: COc1cc(C2CC(=O)Nc3c2cnn3Cc2ccco2)cc2c1OCCO2 (centres undefined)
inactive

How about this compound: "COc1ccc(CCN2CC=Cn3c2nc2ccccc2c3=O)cc1"
inactive

How about this compound: "O=C1c2c[n+](Cc3ccccc3)ccc2-c2nc3ccccc3c3ccnc1c23"
active

How about this compound: "C/C(Cc1ccc(Cl)cc1)=C(\c1ccc(OCCN2CCCCCC2)cc1)c1ccc(OC(=O)Cc2ccccc2)cc1"
inactive

---

Tested on: SNB-19 CNS
assayProcedure: NCI-60 one-dose screen, 48 h
conditionDetails: 10 µM unless noted
This is part of a sample that, as a whole, favours compounds with a hit. Of some 83,000 tested, about 20% had one in any assay. Active and inactive are the calls of the source. The calls were made as follows: active = growth percent below 10; inactive = the rest.
Mark one answer only. Choices: active, inactive

Identify the outcome logged in this assay for the molecule shown: CCOC(=O)C(CC)n1c(=O)c2cc(OC)c(OC)cc2c2cnc3[nH]ccc3c21 (centres undefined)
inactive

How about this molecule: "CC(=O)C1=C(O)C=C2Oc3c(C(=O)/C=C/c4c(Cl)cccc4Cl)c(O)c(C)c(O)c3[C@]2(C)C1=O"
active

How about this molecule: "CCOc1ccc(Nc2nc(-c3c(C)nc4ncccn34)cs2)cc1"
inactive

How about this molecule: CCC(c1ccccc1)C(CC)c1ccc(O)c(O)c1 (centres undefined)
inactive

How about this molecule: COc1ccc(N(Cc2cc(OC)c(OC)c(OC)c2)C2OC(=O)c3ccccc32)cc1 (centres undefined)
inactive

How about this molecule: ClC1=C2NC=NC2n2c(nnc2-c2ccc(Cl)cc2)N1 (centres undefined)
inactive

How about this molecule: C=C1CCC2C3(C)COC(c4ccc(SC)cc4)OC3CCC2(C)C1C/C=C1/C(=O)OCC1O (centres undefined)
inactive

How about this molecule: "CCn1cc2c(cc1=O)-c1nc3ccccc3c3ccnc(c13)C2=O"
inactive

How about this molecule: CCN(CC)CCCC(C)N/C(=C1\C(=O)NC(=O)\C1=C(/NC(C)CCCN(CC)CC)c1cccc(OC)c1)c1cccc(OC)c1 (centres undefined)
inactive

How about this molecule: "O=[N+]([O-])c1cccc(-c2nc3sccn3c2-c2ccnc(NCCCNS(=O)(=O)c3ccc(F)cc3)n2)c1"
inactive

How about this molecule: "CN(C)CCOc1ccc(-c2nc3ccc(-c4nc5ccc(N6CCN(C)CC6)cc5[nH]4)cc3[nH]2)cc1"
inactive

How about this molecule: "CCOC(=O)c1cnc2ccc(Br)cc2c1Nc1cccc(S(=O)(=O)NC)c1"
inactive

How about this molecule: "COc1cc(NC(N)=NCC(C)(C)COc2ccc(C(F)(F)F)cc2)cnc1C#N"
inactive

How about this molecule: "COc1cccc(-c2cn3c(ccc4ccccc43)n2)c1"
inactive

How about this molecule: Cn1c(=O)c2[nH]c(C(O)C(O)C(O)C(O)CO)nc2n(C)c1=O (centres undefined)
inactive

How about this molecule: "Oc1ccccc1/C=N/Nc1ccc2ccccc2n1"
inactive

How about this molecule: C=C1CCC2C3(C)COC(C)(C)OC3CCC2(C)C1C/C=C1/C(=O)OCC1OC(C)=O (centres undefined)
inactive

How about this molecule: "O=C(NCc1cccc(C(F)(F)F)c1)[C@H](CCC(=O)N1CCN(C2CCCCC2)CC1)N1C(=O)[C@@H](N2C(=O)OC[C@@H]2c2ccccc2)[C@H]1/C(Cl)=C/c1ccccc1"
inactive

How about this molecule: "NC(=S)N/N=C/c1cc(-c2cccc(N)c2)ccn1"
inactive

How about this molecule: "COc1ccc2nc3cc(Cl)ccc3c(N3CCN(c4nccc(Nc5ccc(Cl)cc5)n4)CC3)c2c1"
inactive

How about this molecule: CN1CCCCC1CCN1c2ccccc2Sc2ccc(Cl)cc21 (centres undefined)
inactive

How about this molecule: "CC1=CC(=O)CC(C)(C)[C@@]1(O)/C=C/[C@@H](C)O"
inactive

How about this molecule: "Cc1ccc(S(=O)(=O)n2cc(-c3csc(-c4cn(C)c5ncccc45)n3)c3ccccc32)cc1"
inactive

How about this molecule: "Oc1c(Cl)cc(Cl)cc1CNc1nccnn1"
inactive

How about this molecule: "COc1cccc(/C=C2/C(=O)N(Cc3ccco3)SC2=S)c1OC"
inactive

How about this molecule: "Cc1ccc(-c2nc(/C=N/Nc3cc(C)nc4ccc(Br)cc34)c(C)o2)cc1"
active

How about this molecule: "CC[n+]1ccc2c(c1)C(=O)c1nccc3c1c-2nc1ccccc13"
active

How about this molecule: "Cc1ccc2c(NCCCN(C)C)c3c(C)nn(C)c3nc2c1"
inactive

How about this molecule: "O=C1c2cccnc2C(=O)c2c1c(C(=O)OCCN1CCCCC1)c1ccccn21"
active

How about this molecule: "CC[C@H](Nc1ncnc(N)c1C(N)=O)c1nc2cccc(NCc3ccc(C(=O)NO)cc3)c2c(=O)n1-c1ccccc1"
inactive

How about this molecule: "CC(C)Oc1nc2c(c(=O)n(C)c(=O)n2C)n1C"
inactive

How about this molecule: CS(=O)CCCCCN=C=S (centres undefined)
inactive

How about this molecule: "CC(=O)/C(=C/c1cccc(Cl)c1)C(=O)c1ccccc1"
inactive

How about this molecule: "C=C1C(=O)O[C@H]2[C@H]1CC/C(Cn1cc(Cc3c[nH]c4ccccc34)nn1)=C\CC[C@@]1(C)O[C@@H]21"
inactive

How about this molecule: "C[C@@H]1CC[C@@H]2[C@@H]1[C@H](OC(=O)/C=C/c1ccccc1)[C@]1(c3ccccc3)C[C@@H](OC(=O)CO)[C@@]2(C)O1"
inactive

How about this molecule: "Cc1ccn2c(-c3csc(Nc4cccc(O)c4)n3)c(C)nc2c1"
inactive

How about this molecule: "O=C(C[C@@H](C(=O)NCc1cccc(C(F)(F)F)c1)N1C(=O)[C@@H](N2C(=O)OC[C@@H]2c2ccccc2)[C@H]1/C=C/c1ccccc1)NC1CCN(Cc2ccccc2)CC1"
inactive

How about this molecule: "N#Cc1c2c(nc3n[nH]c(N)c13)CCCC2"
inactive

How about this molecule: "CC/C=C\C[C@H](F)C/C=C1/C(=O)C=C[C@@H]1C/C=C\CCCC(=O)O"
inactive
